Target: BRD4 (BD2) (Homo sapiens, UniProt O60885)
Construct: Each member comprises two tandem bromodomains (BD1 and BD2) for recognizing the acetylated lysine residues
Experiment: BRD4 (BD2) bromodomain binding, HTRF
Conditions: 2 h incubation at r.t.
Kindly state pIC50 for each of the entries shown.
Scale note: pIC50 = -log10(concentration in M).

[Q] // returns reported pIC50 for input C[C@@H]1N=C(c2ccc(F)cc2)c2ccc(CS(=O)(=O)C(F)(F)F)cc2-c2cn(C)c(=O)cc21
[A] 8.70

[Q] Please give the result for Cn1cc2c(c1C(N)=O)CCN(c1ccc(F)cc1)c1ccc(CS(C)(=O)=O)cc1-2 too.
[A] 7.33

[Q] Also CCNS(=O)(=O)c1ccc2c(c1)-c1cn(C)c(=O)cc1[C@H](C)N=C2c1ccc(F)cc1 , if possible.
[A] 8.70

[Q] Please answer likewise for CCNC(=O)Nc1ccc2c(c1)-c1cn(C)c(=O)cc1[C@H](C)N=C2c1ccc(F)cc1
[A] 8.52

[Q] What about this compound? COc1ccc2c(c1)-c1cn(C)c(=O)cc1CN=C2c1ccc(F)cc1
[A] 7.43

[Q] Same again, this time with CC[S+]([O-])Cc1ccc2c(c1)-c1cn(C)c(=O)cc1[C@H](C)N=C2c1ccc(F)cc1 (some centres unmarked)
[A] 8.70

[Q] Cn1cc2c(c1C(N)=O)CCN(c1ccc(F)cc1)c1ncc(F)cc1-2 , same question.
[A] 6.26

[Q] Again, but for Cn1cc2c(c1C#N)CC(=O)N(c1ccc(F)cc1)c1ccc(CS(C)(=O)=O)cc1-2
[A] 7.80

###

System: MV-4-11 cells
Test: Inhibitory effect on MV-4-11 cells (CellTiter-Glo)
Assay type: cell-based
Details: Homo sapiens, MV4-11; 72 hours, CellTiter-Glo; read-out: MV-4-11
OBSERVED_PROPERTY: IC50 (nM)
Entry rule: numbers only, all in nM.

[Q] Item CCS(=O)(=O)Cc1ccc2c(c1)-c1cn(C)c(=O)cc1C(COC)N=C2c1ccc(F)cc1 (stereo not shown) has what recorded IC50?
[A] 11

[Q] Next molecule: CCS(=O)(=O)Nc1cc2c(cc1F)C(c1ccc(F)cc1)=NC(C)c1cc(=O)n(C)nc1-2 (stereo not shown)
[A] 14

[Q] Another molecule to look at: CCS(=O)(=O)Nc1ccc2c(c1)-c1cn(C)c(=O)cc1CN=C2c1ccc(F)cc1
[A] 5

[Q] # repeat for Cn1cc2c(cc1=O)[C@H](CC(N)=O)N=C(c1ccc(F)cc1)c1ccc(CS(C)(=O)=O)cc1-2
[A] 292

[Q] Continue with CCS(=O)(=O)Cc1ccc2c(c1)-c1cn(C)c(=O)cc1CN=C2c1ccc(F)cc1
[A] 53

[Q] Next: CCS(=O)(=O)Cc1ccc2c(c1)-c1cn(C)c(=O)cc1[C@@H](C)N=C2c1ccc(F)cc1
[A] 985

[Q] Again, but for C[C@@H]1N=C(c2ccc(F)cc2)c2cc(Cl)c(NS(=O)(=O)C3CC3)cc2-c2cn(C)c(=O)cc21
[A] 3

###

Hi there, I'd appreciate the recorded IC50 for every entry that follows.
Target: BRD4 (BD2) (Homo sapiens)
Construct: Each member comprises two tandem bromodomains (BD1 and BD2) for recognizing the acetylated lysine residues
Assay: BRD4 (BD2) bromodomain binding, HTRF
Settings: 2 h incubation at r.t.
Please state the figure in nM; there is no need to write the unit.

[Q] Consider the compound shown here: CCS(=O)(=O)Cc1ccc2c(c1)-c1cn(C)c(=O)cc1[C@H](CC(=O)O)N=C2c1ccc(F)cc1 What is its recorded IC50?
[A] 1

[Q] Try CCNC(=O)C[C@@H]1N=C(c2ccc(F)cc2)c2ccc(CS(C)(=O)=O)cc2-c2cn(C)c(=O)cc21 next.
[A] 1

[Q] Request: CCNC(=O)C[C@@H]1N=C(c2ccc(F)cc2)c2cc(OC)c(F)cc2-c2cn(C)c(=O)cc21
[A] 2

[Q] Also C[C@@H]1N=C(c2ccc(Cl)cc2)c2ccccc2-c2cn(C)c(=O)cc21 , if possible.
[A] 3
